I'd be grateful if you could share measured Kd for these entries.
tested.target: T1, biotinylated CD3 epsilon:delta heterodimer protein (Amsbio AMS.CDD-H52WO) (Homo sapiens (Human), UniProt P07766 23-126; P04234 22-105)
T1 construct: also called CD3 heterodimer
test.details: BLI (Octet), CD3 on SA sensor, Fab analyte;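 also: fabs dipped at several concentrations (0–300 nM) onto CD3-loaded streptavidin biosensors, 100 s association then 300 s dissociation in buffer, pH 7.4, sensors blocked with biocytin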
Numbers only, in nM.

huSP34.13.8 Fab-HF (Fab, V domains shown, also called HC13+LC8) VH: EVQLVESGGGLVQPGGSLRLSCAASGFTFSTYAMNWVRQAPGKGLEWVGRIRSKYNNYATYYAASVKGRFTISRDDSKNTLYLQMNSLRTEDTAVYYCVRHGNFGHSYVSWFAYWGQGTLVTVSS VL: QAVVTQEPSLTVSPGGTVTLTCGSSTGAVTTGHYANWVQQKPGQAPRGLIGGTNKRAPGVPARFSGSLLGGKAALTISGAQPEDEAEYYCALWYSNRWVFGGGTKLTVL; 2.5

Parameter requested: Kd. Apply to each item below.
1. huSP34.3.8 Fab-HF (Fab, V domains shown, also called HC3+LC8) VH: EVQLVESGGGLVQPGGSLRLSCAASGFTFNTYAMNWVRQAPGKGLEWVGRIRSKYNNYATYYADSVKGRFTISRDDSKNSLYLQMNSLRTEDTAVYYCVRHGNFGHSYVSWFAYWGQGTLVTVSS VL: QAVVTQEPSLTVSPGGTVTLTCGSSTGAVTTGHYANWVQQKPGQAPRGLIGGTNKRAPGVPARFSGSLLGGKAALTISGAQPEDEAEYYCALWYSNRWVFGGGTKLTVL
2. huSP34.13.10 Fab-HF (Fab, V domains shown, also called HC13+LC10) VH: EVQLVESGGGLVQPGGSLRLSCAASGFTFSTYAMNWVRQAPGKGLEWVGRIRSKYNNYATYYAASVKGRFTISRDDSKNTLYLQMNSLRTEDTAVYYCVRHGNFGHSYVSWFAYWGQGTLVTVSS VL: QAVVTQPPSLTVSPGGTVTLTCGSSTGAVTTGHYANWVQQKPGQAPRGLIGGTNKRAPGVPARFSGSLSGGKAALTISGAQPEDEAEYYCALWYSNRWVFGGGTKLTVL

### Response
1: 4.4; 2: 1.7
